- assay-target: KRAS G12D (Homo sapiens (Human), UniProt P01116, G12D)
- Sequence (P01116-2 other isoform, or with tags, fused parts or gaps G12D): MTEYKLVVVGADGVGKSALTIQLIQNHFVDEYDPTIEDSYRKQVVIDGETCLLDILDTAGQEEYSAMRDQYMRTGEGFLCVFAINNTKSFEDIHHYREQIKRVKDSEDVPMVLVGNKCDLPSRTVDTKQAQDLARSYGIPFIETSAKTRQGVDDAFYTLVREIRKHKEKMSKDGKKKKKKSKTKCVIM
- assay-protocol: KRAS G12D LoEnz Biochemical Assay, BODIPY-GDP Exchange TR-FRET (SOS1-mediated nucleotide exchange)
- condition-details: read-out: KRas (G12D) GDP HTRF IC50
Criterion: IC50 strictly under 0.4 nM. Met: YES. Not met: NO.

Solved cases below.
Cc1nc(N)cc(-c2nc3c4c(nc(OC[C@@]56CCCN5C[C@H](F)C6)nc4c2F)N2C[C@H]4CC[C@H](N4)[C@H]2[C@H](C)O3)c1CC(F)F [Compound 189]
NO
Cc1nc(N)c(F)c(-c2nc3c4c(nc(OCC5(CN6C[C@@H]7C[C@H]6CO7)CC5)nc4c2F)N2C[C@H]4CC[C@H](N4)[C@H]2[C@H](C)O3)c1C(F)(F)F [Compound 222]
NO
C=C1CN2CCC[C@@]2(COc2nc3c4c(nc(-c5cc(O)cc6cccc(CC)c56)c(F)c4n2)O[C@@H](C)[C@@H]2[C@@H]4CC[C@H](CN32)N4)C1 [Compound 80]
YES
C#Cc1cccc2cc(O)cc(-c3nc4c5c(nc(OC[C@@]67CCCN6C[C@H](F)C7)nc5c3F)N3C[C@H]5CC[C@H](N5)[C@H]3[C@H](C)O4)c12 [Compound 11]
YES
Cc1c(F)c(N)cc(-c2nc3c4c(nc(OC[C@@H]5CC[C@H]6COCCN65)nc4c2F)N2C[C@H]4CC[C@H](N4)[C@H]2[C@H](C)O3)c1C(F)(F)F [Compound 31]
YES
Cc1c(F)c(N)cc(-c2nc3c4c(nc(OC[C@@H]5CO[C@H]6CC[N@]5C6)nc4c2F)N2C[C@H]4CC[C@H](N4)[C@H]2[C@H](C)O3)c1C(F)(F)F [Compound 135]
NO

State whether 0.4 nM exceeds IC50 recorded for C[C@@H]1Oc2nc(-c3cc(N)c(F)c(Cl)c3CC(F)F)c(F)c3nc(OC[C@@]45CCCN4C[C@H](F)C5)nc(c23)N2C[C@H]3CC[C@H](N3)[C@@H]12 [Compound 186] . YES

Lab log: compare recorded IC50 with 0.4 nM; is it strictly lower for C[C@@H]1Oc2nc(-c3c(F)ccc4cc[nH]c(=O)c34)c(F)c3nc(OC[C@@]45CCCN4C[C@H](F)C5)nc(c23)N2C[C@H]3CC[C@H](N3)[C@@H]12 [Compound 196] ? NO

In the record for C[C@@H]1Oc2nc(-c3cccc4ccc(N)nc34)c(F)c3nc(OC[C@@]45CCCN4C[C@H](F)C5)nc(c23)N2C[C@H]3CC[C@H](N3)[C@@H]12 [Compound 114] , is IC50 less than 0.4 nM? NO

Strictly below 0.4 nM: is that where IC50 of COC1(C(F)F)CN(CC2(COc3nc4c5c(nc(-c6cc(N)nc(C)c6C(F)(F)F)c(F)c5n3)O[C@@H](C)[C@@H]3[C@@H]5CC[C@H](CN43)N5)CC2)C1 [Compound 271] sits? NO
